B1: TPR t1 (parent)
chain: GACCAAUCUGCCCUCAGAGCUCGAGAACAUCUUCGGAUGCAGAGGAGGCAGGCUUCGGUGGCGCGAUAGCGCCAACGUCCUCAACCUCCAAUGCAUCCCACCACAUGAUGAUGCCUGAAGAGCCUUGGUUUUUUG

# Variants of: B1
# assay-method-text: polymerase ribozyme fitness, log enrichment relative to wild type (log ratio); higher = more active; in vitro selection for triplet polymerase activity
# Lookup of reported polymerase ribozyme fitness (log ratio) keyed by entry

residues | polymerase ribozyme fitness (log ratio)
GACCAAUCUGCCCUCAGAGCUCGAGAACAUCUUCGGAUGCAGAGGAGGCAGGCUUCGGUGGCGCGAUAGCGCCCACGUCCUCAACCUCCAAUGCAUCCCAUCACAUGAUGAUGCCUGAAGAGCCUUGGUUUCUUG [A74C C101U U132C] | -0.834
GACCUAUCUGCCCUCAGAGCUCGAGAACAUCUUCGGAUGCAGAGGAGGCAGGCUUCAGUGGCGCGAUAGUGCCAACGUCCUCAACCUCCAAUGCAUCCCACCACAUGAUGAUGCCUGAAGAGCCUUGGUUUUUUG [A5U G57A C70U] | -1.67
GACCAAUCUGCCCUCAGAGCUCGAGAACAUCUUCGGAUGCAGAGGAGGCAGGCUUCGGUGACGCGAUAGCGCCAACGGCCUCAACCUCCAAUGCAUCCCACCACAUGAUGAUGCCUGAAGAGACUUGGUUUUAUG [G61A U78G C123A U133A] | 0.482
GACCAAUCUGCUCUCAGAGCUCGAGAACAUCUUCGGAUGCAGAGGAGGCAGGCUUUGGUGGCGCGAUAUCGCCAACGUCCUCAACCUCCAAUGCAUCCCACCACAUGAUGAGGCCUGAUGAGCCUUGGUUUUUUG [C12U C56U G69U U112G A119U] | -2.27
GACCAAUCUGGCCUCAGAGCUCGAGAACAUCUUCGGAUGCAGAGGAGGCAGGCUUCGGUGGCGCGAUAGCGGCAACGUCCUCAACCUCCAAUGCAUCCCACCACAUGAUGAUGCCUGAAGAGCCUUGGUUUUUUG [C11G C72G] | -0.147
